Provenance of the data: patent US20120034231A1

target: T1, human IL12Rβ1 (human, UniProt P42701 24-662); assay: FACS on Baf3 cells transfected with human IL12Rβ1, IgG4
T1 construct: On stably transfected Ba/F3 cells in FACS; on primary human T cells within PBMC in the functional assay; also called human IL12Rβ1 transfected Baf3 cells; Ba/F3/IL12Rβ1 expressing cells
property.measured: pEC50
The quantity pEC50 is defined as the negative base-10 logarithm of the molar concentration.

Query: I have this binder here, MOR05278 IgG4 (antibody, V domains shown, IgG4) VH: QVQLVESGGGLVQPGGSLRLSCAASGFTFSSYGMSWVRQAPGKGLEWVSYIEPKLFWYATFYAASVKGRFTISRDNSKNTLYLQMNSLRAEDTAVYYCARNDFMEPAYFALWGQGTLVTVSS VL: DIELTQPPSVSVAPGQTARISCSGDNLGSYYAYWYQQKPGQAPVGVIYDDSERPSGIPERFSGSNSGNTATLTISGTQAEDEADYYCSSYTYSKNNVFGGGTKLTVLG , and I need its recorded pEC50.
Result: 9.05
